systemTested: Spike protein of SARS-CoV-2 strain D614G (hCoV-19/France/GE1973/2020) (SARS-CoV-2, UniProt P0DTC2 14-1273)
assay: cell-based or functional assay
attributeMeasured: IC50, S-Fuse neutralization of live virus

binder="SPK002M A3 antibody (antibody, human IgG1, kappa, V domains shown) VH: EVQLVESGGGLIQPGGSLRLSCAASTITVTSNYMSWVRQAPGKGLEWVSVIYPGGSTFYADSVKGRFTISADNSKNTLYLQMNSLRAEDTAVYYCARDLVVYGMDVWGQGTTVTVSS VL: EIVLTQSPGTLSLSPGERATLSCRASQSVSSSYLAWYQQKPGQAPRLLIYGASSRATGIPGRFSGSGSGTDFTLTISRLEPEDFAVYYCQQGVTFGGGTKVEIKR" measurement="0.11 µg/mL"
binder="SPK002M C3 antibody (antibody, human IgG1, kappa, V domains shown) VH: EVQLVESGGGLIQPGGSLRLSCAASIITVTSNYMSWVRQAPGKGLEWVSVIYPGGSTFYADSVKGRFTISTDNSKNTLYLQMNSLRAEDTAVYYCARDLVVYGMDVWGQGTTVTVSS VL: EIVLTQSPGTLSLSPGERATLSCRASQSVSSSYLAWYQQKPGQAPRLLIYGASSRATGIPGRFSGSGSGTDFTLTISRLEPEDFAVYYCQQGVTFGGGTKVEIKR" measurement="0.08 µg/mL"
binder="SPK002M A6 antibody (antibody, human IgG1, kappa, V domains shown) VH: EVQLVESGGGLIQPGGSLRLSCAASGITVTSNYMSWVRQAPGKGLEWVSVIYPGGSTFYADSVKGRFTISADNSKNTLYLQMNSLRAEDTAVYYCARDLVVYGMDVWGQGTTVTVSS VL: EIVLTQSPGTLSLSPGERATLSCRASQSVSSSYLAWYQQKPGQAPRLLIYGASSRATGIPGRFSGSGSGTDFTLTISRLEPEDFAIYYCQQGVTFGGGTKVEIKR" measurement="0.07 µg/mL"
